Here, each record is paired with measured activity coefficient data.
Assay: activity coefficient (dimensionless); of the first substance listed, at infinite dilution; xn = mol fraction of the nth substance listed
Conditions: 333.15 K; 101.33 kPa; Liquid; Chromatography; x1 = 0
// no unit string in output, number only

Consider the reported activity coefficient for these compounds:
[[record]]
compound = "CC#N [acetonitrile] + C[n+]1ccn(CCCCS(=O)(=O)O)c1.O=S(=O)([N-]S(=O)(=O)C(F)(F)F)C(F)(F)F"
readout_name = "activity coefficient"
numeric_value = 0.42

[[record]]
compound = "CCCCCCCCCCCC [dodecane] + C[n+]1ccn(CCCCS(=O)(=O)O)c1.O=S(=O)([O-])C(F)(F)F"
readout_name = "activity coefficient"
numeric_value = 1020

[[record]]
compound = "Cc1ccc(C)cc1 [1,4-dimethylbenzene] + C[n+]1ccn(CCCCS(=O)(=O)O)c1.O=S(=O)([O-])O"
readout_name = "activity coefficient"
numeric_value = 54.4

[[record]]
compound = "CCC[N+](=O)[O-] [1-nitropropane] + C[n+]1ccn(CCCCS(=O)(=O)O)c1.O=S(=O)([O-])C(F)(F)F"
readout_name = "activity coefficient"
numeric_value = 1.8

[[record]]
compound = "CCCCCCCCCCCCCC [tetradecane] + C[n+]1ccn(CCCCS(=O)(=O)O)c1.O=S(=O)([N-]S(=O)(=O)C(F)(F)F)C(F)(F)F"
readout_name = "activity coefficient"
numeric_value = 1060


## Input Respond only with activity coefficient recorded for C1CCCCCC1 [cycloheptane] + C[n+]1ccn(CCCCS(=O)(=O)O)c1.O=S(=O)([O-])C(F)(F)F
## Output 270

## Input Respond only with activity coefficient recorded for CC#N [acetonitrile] + C[n+]1ccn(CCCCS(=O)(=O)O)c1.O=S(=O)([O-])C(F)(F)F
## Output 0.67

---

Here, each record is paired with measured activity coefficient data.
Experiment: activity coefficient (dimensionless); of the first substance listed, at infinite dilution; xn = mol fraction of the nth substance listed
Details: 343.15 K; 101.33 kPa; Liquid; Chromatography; x1 = 0
// no unit string in output, number only

Consider the reported activity coefficient for these molecules:
[[record]]
molecule = "CCOCC [diethyl ether] + C[n+]1ccn(CCCCS(=O)(=O)O)c1.O=S(=O)([O-])C(F)(F)F"
numeric_value = 4.21

[[record]]
molecule = "c1ccsc1 [thiophene] + C[n+]1ccn(CCCCS(=O)(=O)O)c1.O=S(=O)([O-])O"
numeric_value = 6.13

[[record]]
molecule = "CCCCCCCCCCCCCC [tetradecane] + C[n+]1ccn(CCCCS(=O)(=O)O)c1.O=S(=O)([O-])O"
numeric_value = 1680


## Input Respond only with activity coefficient recorded for C[N+](=O)[O-] [nitromethane] + C[n+]1ccn(CCCCS(=O)(=O)O)c1.O=S(=O)([O-])C(F)(F)F
## Output 0.71

## Input Respond only with activity coefficient recorded for CCC(=O)CC [pentan-3-one] + C[n+]1ccn(CCCCS(=O)(=O)O)c1.O=S(=O)([O-])C(F)(F)F
## Output 2.44

## Input Respond only with activity coefficient recorded for CC(C)CO [2-methyl-1-propanol] + C[n+]1ccn(CCCCS(=O)(=O)O)c1.O=S(=O)([N-]S(=O)(=O)C(F)(F)F)C(F)(F)F
## Output 0.26

---

Test: activity coefficient (dimensionless); of the first substance listed, at infinite dilution; xn = mol fraction of the nth substance listed
Details: 323.15 K; 101.33 kPa; Liquid; Chromatography; x1 = 0
Parameter threshold = 0.8. Response is 1 (yes) when activity coefficient meets or exceeds it, else 0 (no).

[[record]]
molecule = "CC(C)OC(C)C [diisopropyl ether] + C[n+]1ccn(CCCCS(=O)(=O)O)c1.O=S(=O)([O-])C(F)(F)F"
group_label = "1 (yes)"

[[record]]
molecule = "C[N+](=O)[O-] [nitromethane] + C[n+]1ccn(CCCCS(=O)(=O)O)c1.O=S(=O)([N-]S(=O)(=O)C(F)(F)F)C(F)(F)F"
group_label = "0 (no)"

[[record]]
molecule = "CCOCC [diethyl ether] + C[n+]1ccn(CCCCS(=O)(=O)O)c1.O=S(=O)([N-]S(=O)(=O)C(F)(F)F)C(F)(F)F"
group_label = "0 (no)"

[[record]]
molecule = "CCC(C)=O [butanone] + C[n+]1ccn(CCCCS(=O)(=O)O)c1.O=S(=O)([N-]S(=O)(=O)C(F)(F)F)C(F)(F)F"
group_label = "0 (no)"

[[record]]
molecule = "Cc1ccccc1 [toluene] + C[n+]1ccn(CCCCS(=O)(=O)O)c1.O=S(=O)([O-])C(F)(F)F"
group_label = "1 (yes)"

[[record]]
molecule = "Cc1ccccc1C [1,2-dimethylbenzene] + C[n+]1ccn(CCCCS(=O)(=O)O)c1.O=S(=O)([O-])C(F)(F)F"
group_label = "1 (yes)"


## Input # check: activity coefficient of c1ccsc1 [thiophene] + C[n+]1ccn(CCCCS(=O)(=O)O)c1.O=S(=O)([N-]S(=O)(=O)C(F)(F)F)C(F)(F)F is greater than or equal to 0.8
## Output 1 (yes)

---

Assay: activity coefficient (dimensionless); of the first substance listed, at infinite dilution; xn = mol fraction of the nth substance listed
Conditions: 333.15 K; 101.33 kPa; Liquid; Chromatography; x1 = 0
READOUT NAME: activity coefficient
// no unit string in output, number only

Consider the reported activity coefficient for these compounds:
[[record]]
compound = "CCCCO [butan-1-ol] + C[n+]1ccn(CCCCS(=O)(=O)O)c1.O=S(=O)([N-]S(=O)(=O)C(F)(F)F)C(F)(F)F"
readout_name = "activity coefficient"
numeric_value = 0.19

[[record]]
compound = "c1ccccc1 [benzene] + C[n+]1ccn(CCCCS(=O)(=O)O)c1.O=S(=O)([O-])O"
readout_name = "activity coefficient"
numeric_value = 12.5

[[record]]
compound = "CCC(=O)CC [pentan-3-one] + C[n+]1ccn(CCCCS(=O)(=O)O)c1.O=S(=O)([O-])O"
readout_name = "activity coefficient"
numeric_value = 13.8

[[record]]
compound = "ClCCl [dichloromethane] + C[n+]1ccn(CCCCS(=O)(=O)O)c1.O=S(=O)([O-])C(F)(F)F"
readout_name = "activity coefficient"
numeric_value = 1.46

[[record]]
compound = "C[N+](=O)[O-] [nitromethane] + C[n+]1ccn(CCCCS(=O)(=O)O)c1.O=S(=O)([N-]S(=O)(=O)C(F)(F)F)C(F)(F)F"
readout_name = "activity coefficient"
numeric_value = 0.6


## Input Respond only with activity coefficient recorded for ClC(Cl)(Cl)Cl [tetrachloromethane] + C[n+]1ccn(CCCCS(=O)(=O)O)c1.O=S(=O)([N-]S(=O)(=O)C(F)(F)F)C(F)(F)F
## Output 7.99

## Input Respond only with activity coefficient recorded for CCc1ccccc1 [ethylbenzene] + C[n+]1ccn(CCCCS(=O)(=O)O)c1.O=S(=O)([O-])C(F)(F)F
## Output 10.3

---

Test: activity coefficient (dimensionless); of the first substance listed, at infinite dilution; xn = mol fraction of the nth substance listed
Conditions: 333.15 K; 101.33 kPa; Liquid; Chromatography; x1 = 0
READOUT NAME: activity coefficient
// no unit string in output, number only

Consider the reported activity coefficient for these compounds:
[[record]]
compound = "CCCCCCCCCCCCCC [tetradecane] + C[n+]1ccn(CCCCS(=O)(=O)O)c1.O=S(=O)([O-])O"
readout_name = "activity coefficient"
numeric_value = 1750

[[record]]
compound = "CCCO [propan-1-ol] + C[n+]1ccn(CCCCS(=O)(=O)O)c1.O=S(=O)([N-]S(=O)(=O)C(F)(F)F)C(F)(F)F"
readout_name = "activity coefficient"
numeric_value = 0.13

[[record]]
compound = "Cc1ccccc1 [toluene] + C[n+]1ccn(CCCCS(=O)(=O)O)c1.O=S(=O)([N-]S(=O)(=O)C(F)(F)F)C(F)(F)F"
readout_name = "activity coefficient"
numeric_value = 3.28


## Input Respond only with activity coefficient recorded for CCCCCCCCCCC [undecane] + C[n+]1ccn(CCCCS(=O)(=O)O)c1.O=S(=O)([N-]S(=O)(=O)C(F)(F)F)C(F)(F)F
## Output 448

---

Experiment: activity coefficient (dimensionless); of the first substance listed, at infinite dilution; xn = mol fraction of the nth substance listed
Details: 333.15 K; 101.33 kPa; Liquid; Chromatography; x1 = 0
Here, each record is paired with measured activity coefficient data.
// no unit string in output, number only

[[record]]
compound = "CC(C)CO [2-methyl-1-propanol] + C[n+]1ccn(CCCCS(=O)(=O)O)c1.O=S(=O)([N-]S(=O)(=O)C(F)(F)F)C(F)(F)F"
numeric_value = 0.22

[[record]]
compound = "Cc1ccccc1C [1,2-dimethylbenzene] + C[n+]1ccn(CCCCS(=O)(=O)O)c1.O=S(=O)([N-]S(=O)(=O)C(F)(F)F)C(F)(F)F"
numeric_value = 4.64

[[record]]
compound = "ClCCl [dichloromethane] + C[n+]1ccn(CCCCS(=O)(=O)O)c1.O=S(=O)([N-]S(=O)(=O)C(F)(F)F)C(F)(F)F"
numeric_value = 1.18

[[record]]
compound = "CCCCCCCCCCCCC [tridecane] + C[n+]1ccn(CCCCS(=O)(=O)O)c1.O=S(=O)([N-]S(=O)(=O)C(F)(F)F)C(F)(F)F"
numeric_value = 911

[[record]]
compound = "c1ccsc1 [thiophene] + C[n+]1ccn(CCCCS(=O)(=O)O)c1.O=S(=O)([O-])C(F)(F)F"
numeric_value = 2.23


## Input Respond only with activity coefficient recorded for CCc1ccccc1 [ethylbenzene] + C[n+]1ccn(CCCCS(=O)(=O)O)c1.O=S(=O)([N-]S(=O)(=O)C(F)(F)F)C(F)(F)F
## Output 5.79

## Input Respond only with activity coefficient recorded for CCOCC [diethyl ether] + C[n+]1ccn(CCCCS(=O)(=O)O)c1.O=S(=O)([N-]S(=O)(=O)C(F)(F)F)C(F)(F)F
## Output 0.53

## Input Respond only with activity coefficient recorded for Cc1cccc(C)c1 [1,3-dimethylbenzene] + C[n+]1ccn(CCCCS(=O)(=O)O)c1.O=S(=O)([O-])C(F)(F)F
## Output 10.1

## Input Respond only with activity coefficient recorded for CCC(C)=O [butanone] + C[n+]1ccn(CCCCS(=O)(=O)O)c1.O=S(=O)([O-])O
## Output 5.17

## Input Respond only with activity coefficient recorded for Cc1ccc(C)cc1 [1,4-dimethylbenzene] + C[n+]1ccn(CCCCS(=O)(=O)O)c1.O=S(=O)([N-]S(=O)(=O)C(F)(F)F)C(F)(F)F
## Output 5.47

## Input Respond only with activity coefficient recorded for CCCCCCCCCCCCC [tridecane] + C[n+]1ccn(CCCCS(=O)(=O)O)c1.O=S(=O)([O-])O
## Output 1410

## Input Respond only with activity coefficient recorded for CCCC(C)=O [pentan-2-one] + C[n+]1ccn(CCCCS(=O)(=O)O)c1.O=S(=O)([O-])O
## Output 13.2

## Input Respond only with activity coefficient recorded for c1ccccc1 [benzene] + C[n+]1ccn(CCCCS(=O)(=O)O)c1.O=S(=O)([O-])C(F)(F)F
## Output 3.29

## Input Respond only with activity coefficient recorded for CCC(=O)CC [pentan-3-one] + C[n+]1ccn(CCCCS(=O)(=O)O)c1.O=S(=O)([N-]S(=O)(=O)C(F)(F)F)C(F)(F)F
## Output 0.64
